Measured Activity V/mg. at 60° C. accompanies every entry in the list below.
# assay.system: NADP linked alcohol dehydrogenase (alcohol-aldehyde/ketone oxidoreductase) (Thermoanaerobacter brockii, UniProt P14941)
# Construct: of the T. brockii enzyme preparation with various alcohols and carbonyl compounds; made in house; host or cells: T. brockii itself (native host; partially purified enzyme)
# Sequence (P14941 1-352): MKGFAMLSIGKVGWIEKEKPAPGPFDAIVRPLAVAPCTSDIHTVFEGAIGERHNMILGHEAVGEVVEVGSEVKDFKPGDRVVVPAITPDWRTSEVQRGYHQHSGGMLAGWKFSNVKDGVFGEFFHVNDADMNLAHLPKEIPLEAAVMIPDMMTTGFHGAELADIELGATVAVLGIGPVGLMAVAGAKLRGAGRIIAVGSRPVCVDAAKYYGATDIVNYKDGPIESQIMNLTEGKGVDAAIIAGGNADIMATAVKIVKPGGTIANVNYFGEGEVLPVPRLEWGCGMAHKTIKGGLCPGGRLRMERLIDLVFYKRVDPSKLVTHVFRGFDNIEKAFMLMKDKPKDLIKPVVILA
# measurement.description: Specific activity of partially purified NADP linked alcohol dehydrogenase with alcohols and carbonyl compounds (absorbance at 334 nm)
# Format: biochemical, Thermoanaerobium brockii
# condition.set: saturating substrate (0.2-0.5 M alcohol or ketone, 10 mM acetaldehyde); 0.5 mM NADP or 0.2 mM NADPH; 0.1 M Tris-Cl pH 7.8
Give your result in μ Mole/Min./Mg Protein as a bare value.

# example entries with known answers
>>> print(df.to_string())
                     molecule      experimental_readout  number
0                 O=C1CCCCCC1  Activity V/mg. at 60° C.     3.0
1                    CCC(C)=O  Activity V/mg. at 60° C.     7.6
2                   O=C1CCCC1  Activity V/mg. at 60° C.     6.0
3                  O=C1CCCCC1  Activity V/mg. at 60° C.     6.2
4  CCC(C)O (stereo not shown)  Activity V/mg. at 60° C.    78.0
5                        CCCO  Activity V/mg. at 60° C.     3.6

[in] Look at this molecule and give its reported Activity V/mg. at 60° C.. CO
[out] 0
